Source of measurements: patent US10189788B2

- Subject Of Test: Human FP Receptor (Homo sapiens (Human))
- Sequence (P43088 whole entry): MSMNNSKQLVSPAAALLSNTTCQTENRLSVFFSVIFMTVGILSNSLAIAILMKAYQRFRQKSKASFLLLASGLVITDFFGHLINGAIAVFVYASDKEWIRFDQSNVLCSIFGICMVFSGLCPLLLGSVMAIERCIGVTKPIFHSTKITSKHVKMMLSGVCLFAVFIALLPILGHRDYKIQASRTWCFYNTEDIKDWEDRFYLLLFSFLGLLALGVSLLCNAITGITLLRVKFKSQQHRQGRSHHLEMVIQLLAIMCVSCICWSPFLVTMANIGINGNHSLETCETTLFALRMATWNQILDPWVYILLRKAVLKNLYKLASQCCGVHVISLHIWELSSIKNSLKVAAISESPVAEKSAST
- Assay Remarks: In vitro test of inhibition of human FP receptor activity, variant B-1A (PGF2α-induced calcium flux in FP-expressing CHEM1 cells)
- Assay type: cell-based
- Setup Conditions: calcium flux induced by 3 nM PGF2α, Fluo-8, some mean values from multiple determinations
Binary label based on IC50 with cut-off 200 nM: below gives True, not below gives False.

Find out if reported IC50 for Cc1c(-c2ccccc2)nc2ccc(S(F)(F)(F)(F)F)cc2c1C(=O)Nc1ccc(C(=O)O)cc1F is less than 200 nM False

Find out if reported IC50 for Cc1c(-c2ccccc2)nc2ccc(Br)cc2c1C(=O)Nc1ccc(C(=O)NS(=O)(=O)C(F)(F)F)cc1F is less than 200 nM False

Find out if reported IC50 for Cc1c(-c2ccccc2)nc2ccc(Br)cc2c1C(=O)Nc1ccc(C(=O)O)cc1SC(F)(F)F is less than 200 nM True

Find out if reported IC50 for Cc1c(-c2cccc(F)c2)nc2ccc(Br)cc2c1C(=O)Nc1ccc(C(=O)O)cc1F is less than 200 nM True

Find out if reported IC50 for Cc1c(-c2ccccc2)nc2ccc(C(F)F)cc2c1C(=O)Nc1ccc(C(=O)O)cc1F is less than 200 nM False

Find out if reported IC50 for Cc1c(-c2ccccc2)nc2c(C)cc(Br)cc2c1C(=O)Nc1ccc(C(=O)O)cc1F is less than 200 nM True

Find out if reported IC50 for Cc1c(-c2ccccc2)nc2ccc(Br)cc2c1C(=O)Nc1ccc(C(=O)O)c(F)c1F is less than 200 nM True
